tested_target: T1, mouse CLDN-5 protein (mouse, UniProt O54942 1-218)
T1 construct: Expressed on cells by retrovirus; also called mCLDN-5; MDCKII/mCLDN-5
T1 sequence: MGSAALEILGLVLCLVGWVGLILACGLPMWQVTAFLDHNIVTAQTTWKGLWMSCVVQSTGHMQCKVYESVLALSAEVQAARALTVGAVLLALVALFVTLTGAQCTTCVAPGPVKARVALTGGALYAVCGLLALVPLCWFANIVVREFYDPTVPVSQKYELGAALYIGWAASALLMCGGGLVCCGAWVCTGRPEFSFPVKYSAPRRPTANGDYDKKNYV
protocol_text: FACS, hybridoma supernatant on CLDN-expressing cells
metric_name: binding result

| binder | data_value |
| --- | --- |
| rat anti-CLDN-5 antibody R20 (antibody, rat IgG2a, V domains shown, Hybridoma monoclonal; also called antibody L) VH: EVQLVESGGGLVQPGRSMKLSCAVSGFTFSDYYMAWVRQAPKKGLEWVASISYEGRNTYYGDSVKGRFTISRDNAKNTLYLQMNSLRSEDTATYYCARHPRRYFDFWGPGTMVTVSS VL: DIVMTQSPSSLAVSAGETVTINCKSSQSLLFSGDQENHLAWYQQKAGQSAKLLIYWASTRESGVPDRFIGSGSGADFTLTISSMQAEDRATYYCQQNYDIPYTFGAGTKLEL | no binding |
| mouse anti-CLDN-5 antibody M29 (antibody, mouse IgG3, V domains shown, Hybridoma monoclonal; also called antibody D) VH: EVQLVESGGGLVQPKGSLKLSCAASGFTFNIYAMHWVRQAPGKGLEWVARIRSKSSNYATYYVDSVKDRFIISRDDSQSMLYLQVNNLKTEDTAMYYCVREGNWDCFDYWGQGTTLTVSS VL: DIVMSQSPSSLPVSVGQKVTMTCKSSQSLLYTSNQKNYLAWYQQKPGQSPKLLIYWASTRESGVPDRFTGSGSGTDFTLTISSVKAEDLAIYYCQQYYRYHTFGGGTRLEIK | no binding |
